assay: The drug is tested on Z-012 corresponding to metagenome with ENA study accession number: PRJEB37062 and ENA sample accession number: ERS12561812 for biotransformation under anaerobic condition. The drug concentrations were measured over 9 timepoints collected between 0 and 24 hours of incubation by liquid-chromatography-coupled mass spectrometry (LC–MS); details: 2 µM; also: call rule not given here
recorded_endpoint: Bacterial Biotransformation

INSERT INTO measurements (compound, value_measured) VALUES
  ('Cc1cc2c(s1)Nc1ccccc1N=C2N1CCN(C)CC1', 'Compound NOT metabolized'),
  ('OCCN(CCO)c1nc(N2CCCCC2)c2nc(N(CCO)CCO)nc(N3CCCCC3)c2n1', 'Compound NOT metabolized'),
  ('CC1=C(CC(=O)O)c2cc(F)ccc2/C1=C\c1ccc([S+](C)[O-])cc1 (stereo not drawn)', 'Compound NOT metabolized'),
  ('O=C1N=C([O-])NC1(c1ccccc1)c1ccccc1.[Na+] [PHENYTOIN SODIUM]', 'Compound NOT metabolized'),
  ('CC(CCc1ccccc1)NCC(O)c1ccc(O)c(C(N)=O)c1 (stereo not drawn)', 'Compound NOT metabolized'),
  ('Cc1ccccc1C(OCCN(C)C)c1ccccc1.O=C(O)CC(O)(CC(=O)O)C(=O)O (stereo not drawn) [ORPHENADRINE CITRATE]', 'Compound NOT metabolized'),
  ('CC(=O)SCC(Cc1ccccc1)C(=O)NCC(=O)OCc1ccccc1 (stereo not drawn)', 'Compound metabolized'),
  ('COC(=O)C(c1ccccc1)C1CCCCN1 (stereo not drawn) [METHYLPHENIDATE]', 'Compound NOT metabolized'),
  ('CCN(C(C)=O)c1cccc(-c2ccnc3c(C#N)cnn23)c1', 'Compound metabolized'),
  ('CC(=O)OCC(=O)[C@@]1(OC(C)=O)[C@@H](C)C[C@H]2[C@@H]3C[C@H](F)C4=CC(=O)C=C[C@]4(C)[C@@]3(F)[C@@H](O)C[C@@]21C [DIFLORASONE DIACETATE]', 'Compound metabolized'),
  ('COc1cc(NC(C)CCCN)c2ncccc2c1.O=P(O)(O)O.O=P(O)(O)O (stereo not drawn) [PRIMAQUINE PHOSPHATE]', 'Compound NOT metabolized'),
  ('Nc1nc(N)nc(-c2cc(Cl)ccc2Cl)n1.O=C(O)/C=C\C(=O)O [IRSOGLADINE MALEATE]', 'Compound NOT metabolized'),
  ('CC(C)(C)NCC(O)c1cc(Cl)c(N)c(Cl)c1 (stereo not drawn)', 'Compound NOT metabolized'),
  ('CC1Cc2ccccc2N1NC(=O)c1ccc(Cl)c(S(N)(=O)=O)c1 (stereo not drawn) [INDAPAMIDE]', 'Compound NOT metabolized'),
  ('CCN(CC)CCOC(=O)C1(C2CCCCC2)CCCCC1', 'Compound metabolized'),
  ('CCN(C)C(=O)Oc1cccc([C@H](C)N(C)C)c1.O=C(O)C(O)C(O)C(=O)O [RIVASTIGMINE TARTRATE]', 'Compound NOT metabolized'),
  ('CCOc1ccc2nc(S(N)(=O)=O)sc2c1 [ETHOXZOLAMIDE]', 'Compound NOT metabolized'),
  ('CN(C)C(=O)Oc1cc(OC(=O)N(C)C)cc(C(O)CNC(C)(C)C)c1 (stereo not drawn)', 'Compound NOT metabolized'),
  ('CC[C@@]1(O)C(=O)OCc2c1cc1n(c2=O)Cc2cc3c(CN(C)C)c(O)ccc3nc2-1', 'Compound NOT metabolized'),
  ('COc1ccc(Cc2nccc3cc(OC)c(OC)cc23)cc1OC', 'Compound NOT metabolized'),
  ('C#C[C@]1(OC(C)=O)CC[C@H]2[C@@H]3CCC4=C/C(=N/O)CC[C@@H]4[C@H]3CC[C@@]21CC [NORGESTIMATE]', 'Compound NOT metabolized'),
  ('CC(C)NCC(O)COc1ccc(CC(N)=O)cc1 (stereo not drawn)', 'Compound NOT metabolized'),
  ('CN1C[C@H](C(=O)N[C@]2(C)O[C@@]3(O)[C@@H]4CCCN4C(=O)[C@H](Cc4ccccc4)N3C2=O)C[C@@H]2c3cccc4[nH]cc(c34)C[C@H]21.CS(=O)(=O)O [DIHYDROERGOTAMINE MESYLATE]', 'Compound NOT metabolized'),
  ('CN1CCC(OC(c2ccccc2)c2ccccc2)CC1', 'Compound NOT metabolized'),
  ('CCCCCNC(=N)N/N=C/c1c[nH]c2ccc(OC)cc12.O=C(O)/C=C\C(=O)O [TEGASEROD MALEATE]', 'Compound NOT metabolized'),
  ('CC12CC3CC(C)(C1)CC(N)(C3)C2 [MEMANTINE]', 'Compound NOT metabolized'),
  ('Nc1nc(NC2CC2)c2ncn([C@H]3C=C[C@@H](CO)C3)c2n1.Nc1nc(NC2CC2)c2ncn([C@H]3C=C[C@@H](CO)C3)c2n1.O=S(=O)(O)O [ABACAVIR SULFATE]', 'Compound NOT metabolized'),
  ('COc1ccc2c(c1)c(CC(=O)O)c(C)n2C(=O)c1ccc(Cl)cc1', 'Compound NOT metabolized'),
  ('Cc1cc(C)cc(OCC2CNC(=O)O2)c1 (stereo not drawn)', 'Compound NOT metabolized'),
  ('CC(=O)O[C@]1(C(C)=O)CC[C@H]2[C@@H]3C=C(C)C4=CC(=O)CC[C@]4(C)[C@H]3CC[C@@]21C [MEGESTROL ACETATE]', 'Compound metabolized'),
  ('CN1CCN(CCCN2c3ccccc3Sc3ccc(Cl)cc32)CC1.O=S(=O)(O)CCS(=O)(=O)O [PROCHLORPERAZINE EDISYLATE]', 'Compound metabolized'),
  ('CC[C@H](C)C(=O)O[C@H]1CCC=C2C=C[C@H](C)[C@H](CC[C@@H]3C[C@@H](O)CC(=O)O3)[C@H]21', 'Compound NOT metabolized'),
  ('C[C@@H](c1ncncc1F)[C@](O)(Cn1cncn1)c1ccc(F)cc1F', 'Compound metabolized');
